Where do these numbers come from? They come from PubChem BioAssay (NCI).

We begin with a simple list: items and their reported TGI.
tested on: IGROV1 ovarian; experiment: NCI tumour cell line growth inhibition, 48 h
reported_metric: TGI

compound	reported_metric	result
CC12c3ccccc3C(OC=O)(c3ccccc31)C1(C)c3ccccc3C2(OC=O)c2ccccc21	TGI	> 100 µM
COc1cc2c(cc1OCCCN1CCN(CCCOc3cc4c(cc3OC)C(=O)N3CC(F)(F)C[C@H]3C=N4)CC1)N=C[C@@H]1CC(F)(F)CN1C2=O	TGI	5.13 µM
COc1ccc(-c2nc3ccccc3c(=S)n2OC(C)=O)cc1	TGI	> 25 µM
C[C@@H]1CC[C@H]2[C@H]1[C@H]1[C@@H](CC[C@]2(C)N=C=S)C1(C)C	TGI	> 100 µM
C/C(=N\NC(N)=O)c1sc(-c2nc(C)c(/C(C)=N/NC(N)=O)s2)nc1C	TGI	> 100 µM
CNc1nncc2[nH]cnc12	TGI	> 100 µM
Cc1ccc(/C=C2/N=C(N/N=C\C(O)C(O)C(O)C(O)CO)NC2=O)cc1 (configuration not stated)	TGI	> 100 µM
CCOC(=O)c1c2cccccc-2nc1Nc1cccc2c(C)ccnc12	TGI	> 10 µM
Cc1nc2c(Br)cc(Br)cc2c(=O)n1-c1nnc(-c2cccc(Cl)c2Cl)c(N)n1	TGI	55.1 µM
CO[C@@H]1CC[C@]2(C)OC[C@H](C)[C@@H]3C[C@@H](C)[C@@H](OC(C)=O)[C@@H]4[C@H]3[C@@H]2O[C@H]4C[C@@]1(C)O	TGI	> 100 µM
CCCCCCCCCCCC[N+]12CC[N+](CCN)(CC1)CC2	TGI	39.7 µM
O=C(CCSC1=NCCCN1)c1ccc(F)cc1	TGI	44.4 µM
O=C1c2cccc3cccc(c23)C(=O)N1CCCNCCCCNCCCNCCCN1C(=O)c2cccc3cccc(c23)C1=O	TGI	3.41 µM
O=C1C=C(c2c(O)ccc3ccccc23)c2cc(O)ccc2C1=O	TGI	30.3 µM
CCOc1c(OC)cc(-c2nc3n(n2)C(=O)C(CC)S3)cc1OC (configuration not stated)	TGI	> 10 µM
O=[N+]([O-])c1ccccc1N=Nc1c(O)[nH]c2c(Cl)cc(Cl)cc12	TGI	> 100 µM
CCOc1ccc(OCC(=O)O)c2c1CCCC2=O	TGI	> 100 µM

----------
We begin with a simple list: items and their reported GI50.
tested on: NCI-H23 lung; assay: NCI tumour cell line growth inhibition, 48 h

structure_smiles_string	GI50
COc1ccc(CNc2c3ccccc3nc3ccccc23)cc1F	2.74 µM
Cc1cccc(NC2=C(Cl)C(=O)c3nc(C)ccc3C2=O)c1	0.512 µM
CCOC(=O)c1c(C)c2c(n1Cc1ccccc1)CSCC2=O	17.2 µM
O=c1[nH]c(-c2cccc(F)c2)cc2cc(F)ccc12	1.61 µM

----------
tested on: NCI-H522 lung; test: NCI tumour cell line growth inhibition, 48 h
Where a SMILES comes first, the peptide text is derived from it. [ ]: non-standard residue; d: D form. The star is where a group is joined. Cbz = O=C(OCc1ccccc1)*; Aib = CC(C)(N)C(=O)O; OBn = c1ccc(CO*)cc1

compound	TGI
O=C(CN1C(=O)CC(c2ccccc2)(c2ccccc2)C1=O)N1CCN(CCO)CC1	> 100 µM
CC(NC(=O)C(C)(C)NC(=O)C(CC(=O)OCc1ccccc1)NC(=O)OCc1ccccc1)C(N)=O (centres undefined) (Cbz-Asp(OBn)-[Aib]-Ala-NH2; configuration not given here)	> 100 µM
Clc1sc(Cl)c2c1[C@@H](Cl)C[C@@H]2Br	> 100 µM
COc1ccc(CC(N)=O)cc1OC	> 1250 µM
C=C(CN(C)Cc1ccccc1)c1ccc(NC(=O)c2ccc(C(=C)CN(C)Cc3ccccc3)cc2)cc1	> 100 µM
CCSc1nc(N=Cc2ccccc2O)c2cn[nH]c2n1	> 100 µM
COc1cc(C[P+](c2ccccc2)(c2ccccc2)c2ccccc2)cc(OC)c1OC	> 100 µM
Cc1c2c(c(C)n1-c1ccccc1)C(=O)N(CCN1CCN(c3cccc(C(F)(F)F)c3)CC1)C2=O	> 100 µM
CCOC(=O)Nc1c(C)nc2ccccn12	> 100 µM
Cc1nc2c(N)ncnc2o1	> 100 µM
O=C1CSC2(CC(/C=C/c3cccs3)=NN2c2cccc(S(=O)(=O)O)c2)N1c1nc2ccccc2s1 (centres undefined)	> 100 µM
c1ccc(C2=NOC(c3ccccc3)N2C23CC4CC(CC(C4)C2)C3)cc1 (centres undefined)	> 10 µM
NNc1ncnc2nc[nH]c12	> 100 µM
COC(=N)c1csc(C2OC(CO)C(O)C2O)n1 (centres undefined)	> 100 µM
COc1ccc(Cl)cc1NC(=O)c1ccc(NC2=C(Cl)C(=O)N(Cc3ccccc3)C2=O)cc1	> 100 µM
C/C(=N\NC(N)=O)c1sc(-c2nc(C)c(/C(C)=N/NC(N)=O)s2)nc1C	> 100 µM
CCCCCCCCCCCC[N+]12CC[N+](CCN)(CC1)CC2	> 100 µM
CCN(Cc1c(F)cccc1OC)c1ccc(CO)c(Cl)c1	29.6 µM
Cc1nc2ccccc2c(-n2cccn2)c1CCn1cccn1	> 100 µM
COc1ccc(CNc2c3ccccc3nc3ccccc23)cc1F	6.45 µM
C[N+](C)(C)CC(=O)N/N=C(/Cc1cc(=O)oc2cc(O)ccc12)C(=O)Nc1ccc(Cl)cc1	> 100 µM
COC(=O)C1=CN(CC2=CC(=O)C(C)=CC2=O)C=C(C(=O)OC)C1c1ccccc1OC	> 64.6 µM
CC1(C)C=CC(=O)C(O)C(C)(C)C1=O (centres undefined)	89.4 µM
COc1cc(O)c2c(=O)c(OC)c(-c3ccc(OC)c(O)c3)oc2c1	> 100 µM
